- Tested on: MS2 coat protein
- Method description: apparent KD of MS2 coat protein, switch ON state; designed switch direction (-1 OFF switch, 1 ON switch): 1; higher = weaker reporter binding
- Condition label: FMN input: 0 or 200 uM; Eterna round: R93 (includes R88 designs)
Parameter apparent KD of MS2 coat protein: see the listing below.
Numeric answer only, unit nM assumed.

Below are worked cases with known answers.
GAAAAACAUGAGGAUCACCCAUGUGUAAAUAUGGGAGGAUAUACAAAGACGGAAGUCAAAGUAGAAGGCCUAAAAG [Mat - Same State 1 - Eli mod - D11] ... 94.3
GACUGACAUGAGGAUCACCCAUGUAUUCAAACAUGAGGAUAUAUAACACGUCAUCGACGGAUAGAAGGCAUAGAUG [JR_SS001_Sub1209] ... 117
UGUUCGAGUAGUGAGGAUAUUCAUGGGCCCACAUGAGGAUCACCCAUGUAAUGGACCGGGCCGAAGGAGAAGGCGCGUAAAAUUA [Atceve] ... 38.2
AGGAAACAUGAGGAUCACCCAUGUAAAAAUAUGGGAGGAUAUACAAAGACGAAAGUCAAAGUAGAAGGCCUAAAAG [77%, Mat - Mod of Eli, 4] ... 21.4
GGAGCCGGUACUGAGGAUAUUCAUAUUAAAACAUGAGGAUCACCCAUGUAGGCCAGAAGGCCUUGGGAGAAGGCAGAUCGGCUCC [Biceusra] ... 20.4

// field: apparent KD of MS2 coat protein; key: AAAAAACAUGAGGAUCACCCAUGUGAAAAUAUGGGAGGAUAUACAAACACGAAAGUGAAAGUAGAAGGCCUAAAAA [SS! MT 16] ; value = 19.7

apparent KD of MS2 coat protein in this record for AGCAUGCGAUAUAAGGAUAUGUUGUUUGCAACAUGAGGAUCACCCAUGUUUGAGGCUGAAAAGCAGCAGAAGGUAUAUACAAGCA [SS2-1.0] : 9.45

Query GUGGCGCAGGUACAGGAUAUGUUUCUCGUAACAUGAGGAUCACCCAUGUACCUAUGAGAUUAAAUGCAGAAGGGUGCACGCCACG [Inedor] yields apparent KD of MS2 coat protein of 41.1

---

- System: K4 kissing-loop RNA reporter;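 further: bound reporter read as fluorescence of individual clusters on recovered sequencing chips by microscopy, with normalized cluster intensities fitted with a binding model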
- Method description: apparent KD of K4 kissing-loop reporter; higher = weaker reporter binding
- Condition label: Eterna round: R107; input ligand: arginine 13.2 mM
Assign Y whenever apparent KD of K4 kissing-loop reporter does not fall below 300 nM; assign N whenever it does.

AGGAGCUGUCGACAAAAGUCGACAUAAACCAAGGAUAUGACGAAAGUCAGAAGGUGGUCAUAAGACCAGUGAUGUUGGUAGCUCC [FmnA 10 #SwitchBubble #K4Late] ... N
UGUAUGGACUGAAGGAGCGGUAGAUAAACUGAGUGAUGUUCGGCAGAUAAAGGCGCAAGCCACCAGGUAGGUCGCAGUCCAUACU [KL-SSArg B3] ... N
UGAUAGGACAGAAGGAGCGGCAGUGAUGUUGCCAAAAGGGUAAGGUGUCAAAAGACACCCUGCCAGGUAGGUCGCUGUCCUAUCU ... N
GGUAGCAUGGCGGCCGCCACUUUGCACCUUUUCUUUUCUUUUGGUGCUUCACGAGUGAUGUUCGUAAGGACCGGGCCAUGCUACC ... N
UGUACAUGUCAGCGAGUGAUGUUCGACGAUACCAGACUCGAUAGAGUCCCUUGGCAGCGUAACGCAUGCCAAACUGGCAUGUACU [#SwitchBubble 9 #K4Early] ... Y

I'd appreciate it if you could say whether UCCUGCAAUCUGCCACGAAAGUGGGUUGAUACCAGAGUCGAAAGACUCCCUUGGCAGCGAGUGAUGUUCGUUGCAGGUGUAUAAA [MatMod 10 - Jieux - Exclusion - Theophylline A] has apparent KD of K4 kissing-loop reporter at least equal to 300 nM. N

Threshold query (apparent KD of K4 kissing-loop reporter >= 300 nM) on AGACUACCACACUGUCAAUAGACAGUGGACUAGGAUAUGCUGAUAAGCAGAAGGAGUGAUGUUCCUUGGUAGUCAAUAAAAUAAU [FmnAX 13 G28+U67] N

Please indicate if the recorded apparent KD of K4 kissing-loop reporter for AGCUCAGAGUGACUCGAUAAGAGUCACAAACGAGGACCGGUACGGCCGCCACUCGAAAUAACGAGAGUGAUGUUCUCACUGAGCA [FiskerMod 11 - Jieux - Same State Tryptophan A] meets or exceeds 300 nM. Y

Entry GUACGCUUCCGAGUGAUGUUCGGUAAUAGUUAGGAUAUCGUUUUUUCGAGAAGGAACUGAAUGAGGAAACUCGUUCGAAGUGUAC [FMN A 16] : is its apparent KD of K4 kissing-loop reporter no less than 300 nM? N

Exam item: decide whether the reported apparent KD of K4 kissing-loop reporter for UUCAGUGAUGUUGAACACUGUUGUAUAAACUAGGAUAUGCUGAUAAGCAGAAGGAGUGAUGUUCCGUUCAUCAUCAGAAUUAAAU [KL-XFMN-A3] is at least 300 nM. Y

Evaluate GGUGUUGUUUGUGCUGUUUUCCUCGUUUCUCGAGGACCGGUACGGCCGCCACUCGAGUGAUGUUUGGGUAGCGAUCCUUGUUAGU [Bdazzled - #6 Exc. Tryptophan A] : apparent KD of K4 kissing-loop reporter at minimum 300 nM? N

---

- Test system: MS2 coat protein
- Method description: apparent KD of MS2 coat protein; higher = weaker reporter binding
- Condition label: Eterna round: R107; input ligand: tryptophan 2.4 mM
Quantity kind: apparent KD of MS2 coat protein (nM)
Express it in nM; write the number only.

The following sequences have reported results that may help.
AAAAUCCUCCAUGAGGAUCACCCAUGGGAAGGAGCGCCCGAAAGGGCAGGUAGGUCGCCCAUGAGGAUCACCCAUGGAACCUAAA [ArgAX 26 #DoubleMS2 #OpenEnded #AlternativeMS2] ... 43.5
CGGGAACGAUAUGAUACCAGCCUGCGAAAGAAUGCUUAGUACAUGAGGAUCACCCAUGUAGGCCCUUGGCAGCAUCGACUCAAGU [theeternabot_exclusion_MS2_Theo_B_4] ... 13.2
CAAGAAGUAACUGAUACCAGUGUACUGACAUGAGGAUCACCCAUGUUGGGUUUUGUUGUACACCCUUGGCAGCAGAAUCUUCUUG [AstrosExyTheB#22] ... 58.1

The sequence listed as AAAUAAAUCACAUGAGGAUCACCCAUGGAUACCAGGCCUGGAAACAGCCCUUGGCAGCCACAUGAGGAUCACCCAUGUGCUAAUA [MAT - Exclusion Theophlline A - Mod of Eli - D1] has a reported apparent KD of MS2 coat protein of 152

Item: UGUAUGUGAUCUGAUACCAGUCCAACUGGUAAAACACGAGGAUCACCCGUGUAAAAUUGGGACCCUUGGCAGCAGAUCGCAUACU | apparent KD of MS2 coat protein: 87.9

Recorded result, AGACAUGAGGAUCACCCAUGUAGUAUGGAUACCAGAUGUAGAUUAGUCCCUUGGCAGCUGUGGUGAAGUGAUGCAUUGCUCCUAG [Exclusion - Theophylline A (Freestyle 1)] , apparent KD of MS2 coat protein: 23.2

# apparent KD of MS2 coat protein (sequence: UCACUCCUGAUGGAUACCAGUUACUAACGCAACAUGAGGAUCACCCAUGUGAACACUCAGAACCCUUGGCAGCCAGGAGAACGAA [theeternabot_sameState_MS2_Theo_B_30] ) is 53.8

Briefly, apparent KD of MS2 coat protein measured for UGUACUAUGUGAAGGAGCGAGAAUCCUACAUGAGGAUCACCCAUGUAACAGCGAAAGCUGACUCAGGUAGGUCGCACAUAGUACU [ArgBS - First try] : 128

The recorded apparent KD of MS2 coat protein for entry GCACGACAUGAGGAUCACCCAUGUGCAGAUACCAGUAGGAUAUCCUACCCUUGGCAGCUGAGUGGAUCCGGAGGACCAUGGGUAA [Same State Theophylline A GF8] equals 34.7

Sure, the documented apparent KD of MS2 coat protein for GGGUAUGAUCCGGAUACCAGCGAACAUGAGGAUCACCCAUGUGACCUAAGAUAGGCUCUACGCCCUUGGCAGCCGCGAUCGCAGA [Same State Theophylline B GF9] is 24.7

Data point: UAUCCACAUGAGGAUCACCCAUGUAGGGAAGGAGCGGUGGUUUCACCAGGUAGGUCGCCUUACUGAGGAGAACCGGUGGAAUCGU [Exclusion - Arginine A (Freestyle 29)] ; apparent KD of MS2 coat protein = 42.6

---

The following sequences are listed with their measured apparent KD of MS2 coat protein values.
- System: MS2 coat protein
- Method description: apparent KD of MS2 coat protein; higher = weaker reporter binding
- Condition label: Eterna round: R107; input ligand: arginine 13.2 mM

Here is how some sequences turned out for apparent KD of MS2 coat protein.
ACAUGAGGAUCACCCAUGUAUUACCGGGAAGGAGCGCGUAAGGACGCAGGUAGGUCGCUCGGCGUCGUGCCGGAAGGCACGACGA [#1 Same State - Arginine A Attempt #22 (HarryS)] ... 17.9 nM
ACAUGAGGAUCACCCAUGUGGCGUCUUGAUACCAGACGAGAAGUAGUCCCUUGGCAGCAAAUACAUGAGGAUCACCCAUGUAGGA [cccmullin] ... 16.6 nM

Next:
apparent KD of MS2 coat protein recorded for this sequence, AUGCAUAUCAGAAGGAGCGUCUUUAACAUGAGGAUCACCCAUGUAACAUUGAAUUCGAUGAGACAGGUAGGUCGCUGAAUAGUAA [SS-ArgB24] , is 27.5 nM
